Molecular target: Recombinant human H-PGDS (Homo sapiens, UniProt O60760)
Construct: made in house; host or cells: E. coli
Sequence (O60760 whole entry): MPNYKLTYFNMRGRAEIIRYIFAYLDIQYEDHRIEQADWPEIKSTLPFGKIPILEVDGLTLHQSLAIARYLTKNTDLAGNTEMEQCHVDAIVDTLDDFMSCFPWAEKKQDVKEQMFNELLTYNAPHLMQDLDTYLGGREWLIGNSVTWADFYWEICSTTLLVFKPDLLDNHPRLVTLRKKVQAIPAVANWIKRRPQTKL
Test: H-PGDS inhibitory activity (prostaglandin D2 production from prostaglandin H2, measured by LC-MS/MS)
Type: biochemical
Conditions: recombinant human H-PGDS 1.0 nM expressed in E. coli; prostaglandin H2 25 μM; preincubated 15 minutes on ice, reacted on ice for 1 minute; concentration that inhibits prostaglandin D2 production by 50%
propertyLabel: pIC50
Scale: pIC50 equals -log10([C]), with [C] in mol/L.

Sample records with pIC50:
Cc1cc2occc2c(-c2ccc(C(=O)NC3CCN(C(=O)C4CC4)CC3)cc2)n1 = 8.92
CC(C)(O)[C@H]1CC[C@H](NC(=O)c2ccc(-c3nccc4sccc34)cc2)CC1 = 8.82
O=C(N[C@H]1CCN(c2cc(Cl)ncn2)C1)c1ccc(-c2nccc3occc23)cc1 = 8.85

*Q* Give a short answer stating reported pIC50 for CC(=O)Nc1cnc(N2CCC(NC(=O)c3ccc(-c4nccc5occc45)cc3)CC2)nc1 .
*A* 8.64

*Q* Give a short answer stating reported pIC50 for O=C(N[C@H]1CC[C@@H](O)CC1)c1ccc(-c2nccc3occc23)cc1 .
*A* 8.60

*Q* Give a short answer stating reported pIC50 for Cc1cc(C(=O)N[C@H]2CC[C@H](C(C)(C)O)CC2)ccc1-c1nccc2occc12 .
*A* 7.13

*Q* Give a short answer stating reported pIC50 for Cc1cc(CNC(=O)c2ccc(-c3nccc4[nH]ccc34)cc2)[nH]n1 .
*A* 8.92

*Q* Give a short answer stating reported pIC50 for CC(C)(O)[C@H]1CC[C@H](NC(=O)c2ccc(-c3nccc4occc34)c(C#N)c2)CC1 .
*A* 7.80
